Measured values drawn from PubChem BioAssay (NCI) for this set.

The following molecules are listed with their measured GI50 values.
tested on: RXF 393 renal; assay: NCI tumour cell line growth inhibition, 48 h

Look over these answered cases.
O=C1/C(=C/c2ccccc2Cl)N=C(c2ccccc2)N1Cc1ccco1 = 16400 nM
COc1ccc2c(c1)CC[C@@H]1[C@@H]2CC[C@@]2(C)[C@H]1CC1(CCCCC1)[C@@H]2O = 4680 nM
ClCCN(CCCl)c1ccc(-n2cnc3c(Cl)ncnc32)cc1 = 1860 nM
Cn1c(COC(=O)N2CCCCC2)nc2c(N3CCOCC3)nc(-c3ccccc3)nc21 = 508 nM
O=C(Nc1ccc(Br)cc1)Nc1n[nH]c2ccccc12 = > 62800 nM

Param item: COc1cc(CSc2nc3ccc(C)cc3c(=O)n2Cc2ccccc2)cc(OC)c1OC ; param system: RXF 393 renal; output GI50: 2290 nM

Item: CC(C)(C)c1ccc([I+]c2ccc(C(C)(C)C)cc2)cc1 | System: RXF 393 renal | GI50: 1990 nM

// GI50 (RXF 393 renal) for COc1ccc2[nH]cc(-c3nc(-c4cn(C)c5ccncc45)cs3)c2c1 = 1830 nM

The molecule CCC[C@H](N[C@@H]1CCc2cc(F)cc(F)c2C1)C(=O)Nc1cn(C(C)(C)CNCC(C)(C)C)cn1 on RXF 393 renal: GI50 was 6120 nM

Recorded GI50 for CCN(CC)c1ccc2c(c1)Oc1nc(N)c(C#N)c(N)c1C2Sc1ccc(SC)cc1 (configuration not stated) on RXF 393 renal was 1660 nM

Response field GI50 (RXF 393 renal) for item Nc1cc(-c2ccccc2)ccc1O : > 100000 nM

The molecule O=C1c2ccccc2C(=O)N1c1ccc(S(=O)(=O)Nc2ncccn2)cc1 on RXF 393 renal: GI50 was > 100000 nM

----------
Recorded TGI, one value per entry.
test system: RPMI-8226 leukemia; assay: NCI tumour cell line growth inhibition, 48 h

Study these solved cases before continuing.
CS(=O)(=O)CCNCc1ccc(-c2ccc3ncnc(Nc4ccc(OCc5cccc(C(F)(F)F)c5)cc4)c3c2)o1 = 16.5 µM
O=C(CCC(=O)Nc1ccc(Cl)cc1)CC(=O)c1ccc(F)cc1 = > 100 µM
CC(=O)OCC1OC(n2c(N)c(C#N)c(-c3ccccc3)c(C#N)c2=S)C(OC(C)=O)C(OC(C)=O)C1OC(C)=O (configuration not stated) = > 100 µM
CC(=O)OC1COC(S[As](C)C)C(OC(C)=O)C1OC(C)=O (configuration not stated) = 0.0245 µM
COc1cc(OC)c2c(=O)c(O)c(-c3ccc(OC)c(OC)c3)oc2c1 = > 31.6 µM

So, Cc1cc(N(CCC#N)CCC#N)ccc1/C(N=Nc1cccc([N+](=O)[O-])c1)=N/NC(=O)c1cc(Cl)ccc1O ? Its TGI was 47.5 µM

get_value(item= Cc1cccc(Nc2cn(COCc3ccccc3)c(=O)[nH]c2=O)c1 , readout=TGI) returns > 100 µM

// recorded TGI for O=c1[nH]c(Br)nc2c(Br)c[nH]c12 : > 100 µM

Lookup result for Brc1ccc([I+]c2ccc(Br)cc2)cc1 ; measured TGI: 10.5 µM

----------
Known TGI of a selection of molecules
test system: NCI-H522 lung; assay: NCI tumour cell line growth inhibition, 48 h

# count of solved cases: 6
CCN(CC)CCOc1ccc(/C=C2\CC3C4CCC5=CC(=O)CC[C@]5(C)C4CC[C@]3(C)C2=O)cc1OC (stereo partly drawn) = > 100 µM
O=C(CSc1nc(=O)[nH]c2nc[nH]c12)Nc1ccccc1 = > 100 µM
Cc1ccc(C(=O)C(C)N)cc1 (stereo not drawn) = > 100 µM
O=c1c2ccc3cccc4c(=O)cc(c5ccccc15)-c2c34 = > 100 µM
C1COC(NC(C2CC2)C2CC2)=N1 = > 100 µM
COC(=O)CC1(CNC(=O)OCc2ccccc2)OCCO1 = > 100 µM

Noted for CC(=O)[O-].CC(=O)[O-].O=C(N/N=C/c1cc(Cl)cc(Cl)c1[OH2+])c1ccncc1.[Co+2] : its TGI reads > 100 µM

Query Cc1ccc2c(c1)NC(=O)CCSSCCC(=O)N2 yields TGI of > 100 µM

Item: O=C1OC(c2ccc(O)c(-c3ccccc3)c2)(c2ccc(O)c(-c3ccccc3)c2)c2c(Cl)c(Cl)c(Cl)c(Cl)c21 | TGI: > 100 µM

----------
system: SF-295 CNS; test: NCI tumour cell line growth inhibition, 48 h
Measured parameter: TGI

As a guide, the following entries are already answered.
O=C(Cn1nc(Br)c(Br)c1Br)c1ccccc1 = 91.5 µM
COc1cc2c(c(OC)c1OC)-c1[nH]ncc1CC2 = > 100 µM
CC(=O)Nc1ncc(Sc2ccccc2C(=O)O)s1 = > 100 µM
CC(C)CCC1(O)O[C@H]2C[C@H]3[C@@H]4CCC5CC(=O)C=C[C@]5(C)[C@H]4CC[C@]3(C)[C@H]2[C@@H]1C (stereo partly specified) = 24 µM
O=C(O)CSc1cc(-c2ccccc2)nc2ccccc12 = > 100 µM

// sample O=C(N/N=C1\CCc2ccccc2C1)N/N=C1\CCc2ccccc2C1 , its TGI was > 10 µM

Lab book: TGI of O=[N+]([O-])c1ccccc1N=Nc1c(O)[nH]c2ccccc12 noted as > 100 µM

// field: TGI; key: COc1ccc2c(c1)CC[C@@H]1[C@@H]2CC[C@@]2(C)[C@H]1CC1(CCCCC1)[C@@H]2O ; value = 23.1 µM

Query CCOP(=O)(/C=C\n1cnc2c(=O)n(C(C)=O)c(N)nc21)OCC yields TGI of > 100 µM

Sample CC(=O)OC1CCn2nnc(COC(=O)NC(C)C)c21 (stereo unspecified) ; TGI observed: > 100 µM

The compound identified as CC(=O)[O-].CC(=O)[O-].O=C(N/N=C/c1cc(Cl)cc(Cl)c1[OH2+])c1ccncc1.[Co+2] registered its TGI at > 100 µM

----------
tested on: MDA-MB-435; assay: NCI tumour cell line growth inhibition, 48 h
# TGI listing for each entry below

Record excerpt, results attached:
COc1ccc2c(c1)c(C1(c3cn(C)c4ccc(OC)cc34)C(=O)Nc3ccc(F)cc31)cn2C = > 100 µM
Cc1nn(C(=O)c2ccc(Cl)cc2)c2c1C(c1ccc([N+](=O)[O-])cc1)SC(N)=N2 (stereo not drawn) = > 10 µM

Please examine the following record next.
TGI on MDA-MB-435 for Cc1ccc2c(c1)NC(=O)CCSSCCC(=O)N2 is > 100 µM

----------
tested on: ACHN renal; assay: NCI tumour cell line growth inhibition, 48 h
Measured parameter: TGI

COc1cc(N=NN(C)C)c(C(C)c2c3cc(OC)c(OC)cc3cc[n+]2C)cc1OC (centres undefined) = > 100 µM
COc1cc(OC)c2c(c1OC)OCC(Cc1ccc(O)cc1)C2=O (centres undefined) = > 25 µM
CC1(C)N=C(N)N=C(N)N1c1ccc(F)c(C(F)(F)F)c1 = > 100 µM

// compound O=C(/C=C/c1ccc(O)c(O)c1)OCCc1cccc2ccccc12 , assay ACHN renal, TGI value: 13.4 µM

Measured TGI (ACHN renal), entry Nc1cc(-c2ccccc2)ccc1O : > 100 µM

Observed TGI, ACHN renal, CCCCCCCCCCCCCCCC(=O)OCC(O)C1OC(=O)C(O)=C1O (centres undefined) : 98.7 µM

Entry CCc1n[nH]c(=O)n1N1C(=O)C2CC=CCC2C1=O (centres undefined) : TGI on ACHN renal = > 100 µM

----------
Some compounds, each annotated with its measured TGI.
test system: K-562 leukemia; assay: NCI tumour cell line growth inhibition, 48 h

Consider the reported TGI for these compounds:
CN1CCN(c2ccc3nc(-c4cc(C(C)(C)C)c(O)c(C(C)(C)C)c4)[nH]c3c2)CC1 = 4.97 µM
CCC[C@H](N[C@@H]1CCc2cc(F)cc(F)c2C1)C(=O)Nc1cn(C(C)(C)CNCC(C)(C)C)cn1 = > 89.2 µM
O=C(CSc1nc(=O)[nH]c2nc[nH]c12)Nc1ccccc1 = > 100 µM
N=C(N)SCCc1cn2ccccc2n1 = > 100 µM
COc1cccc(/C=N\Nc2ccc([N+](=O)[O-])cn2)c1O = > 100 µM
COc1ccc(C2SCC(=O)N2c2ccc(-c3ccc(-n4c(-c5ccccc5)nc5ccccc5c4=O)cc3)cc2)cc1 (stereo not drawn) = > 100 µM
O=C1Nc2ccccc2C1Cc1ccccc1 (stereo not drawn) = > 100 µM
COc1ccc2c(c1)c(C1(c3cn(C)c4ccc(OC)cc34)C(=O)Nc3ccc(F)cc31)cn2C = > 100 µM

The reported TGI value, K-562 leukemia, for C(=C1c2ccccc2-c2ccccc21)c1ccccn1 reads > 100 µM

Case CC1C(c2ccc3c(c2)OCO3)c2cc3c(cc2OC1N1CCCC1)OCO3 (stereo not drawn) , K-562 leukemia, TGI recorded as 61.4 µM

The compound O=C(O)C1C2CC3C(OC(=O)C31)C2Br (stereo not drawn) , when measured on K-562 leukemia, yielded TGI of > 88.9 µM
